Target: T1, alpha-amylase (Homo sapiens, UniProt P0DUB6 P0DUB6:16-511)
T1 sequence: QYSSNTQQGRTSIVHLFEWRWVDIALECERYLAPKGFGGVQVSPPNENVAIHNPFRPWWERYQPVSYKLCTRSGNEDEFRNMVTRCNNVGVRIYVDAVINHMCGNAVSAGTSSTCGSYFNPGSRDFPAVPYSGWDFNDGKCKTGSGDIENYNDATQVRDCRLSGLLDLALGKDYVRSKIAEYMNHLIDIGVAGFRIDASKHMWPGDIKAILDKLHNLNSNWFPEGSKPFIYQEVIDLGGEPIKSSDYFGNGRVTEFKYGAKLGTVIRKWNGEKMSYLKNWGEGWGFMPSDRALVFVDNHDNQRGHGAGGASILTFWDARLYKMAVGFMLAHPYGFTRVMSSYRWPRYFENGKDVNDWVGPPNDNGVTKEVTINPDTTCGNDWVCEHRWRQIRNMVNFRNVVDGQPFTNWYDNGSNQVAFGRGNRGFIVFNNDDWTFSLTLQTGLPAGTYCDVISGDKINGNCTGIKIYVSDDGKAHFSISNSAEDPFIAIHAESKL
Assay: SPR; SPR buffer with 1 mM MgCl2, pH 7.4; Chi2 18.8
Conditions: tags: none stated; commercial human alpha-amylase, Lee Biosolutions; label: 3' poly(dA)20 captured on biotin-poly(dT)20
endpoint_label: Kd

| binder | endpoint_label | value_observed |
| --- | --- | --- |
| AML1243KR8m2s49 (ssDNA, KS9 modified T (formula 1) at underlined T, i.e. T 3' of the 5' primer region) DNA: GGATACCTTAACGCCGCCTATTGCTATGAGTAGTGTTTGTAGGTCTGGCAAAAAAAAAAAAAAAAAAAA | Kd | 3.19 nM |

Values from patent US20180327746
